biological target: UniProt P07948
Sequence (P07948 whole entry): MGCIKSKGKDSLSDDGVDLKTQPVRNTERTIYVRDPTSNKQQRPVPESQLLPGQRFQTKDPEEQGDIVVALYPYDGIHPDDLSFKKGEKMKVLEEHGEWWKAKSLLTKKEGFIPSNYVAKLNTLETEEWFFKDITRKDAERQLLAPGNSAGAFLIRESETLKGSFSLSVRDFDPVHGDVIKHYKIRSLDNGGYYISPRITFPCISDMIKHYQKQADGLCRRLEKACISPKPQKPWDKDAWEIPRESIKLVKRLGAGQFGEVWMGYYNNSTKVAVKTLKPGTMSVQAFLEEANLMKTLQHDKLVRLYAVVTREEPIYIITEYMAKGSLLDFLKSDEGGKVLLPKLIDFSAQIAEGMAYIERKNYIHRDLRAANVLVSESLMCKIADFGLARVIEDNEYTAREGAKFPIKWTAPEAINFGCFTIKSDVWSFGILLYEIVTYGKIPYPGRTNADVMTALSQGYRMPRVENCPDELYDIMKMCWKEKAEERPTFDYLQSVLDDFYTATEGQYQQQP
pIC50: −log10 of the molar value.
Metric Name: pIC50

INSERT INTO measurements (compound_smiles, metric_name, value_measured) VALUES
  ('Cc1ccc(F)c(NC(=O)Nc2ccc(-c3cccc4[nH]nc(N)c34)cc2)c1', 'pIC50', '< 4.70');

----------
biological target: FYN (Homo sapiens)
Sequence (P06241 whole entry): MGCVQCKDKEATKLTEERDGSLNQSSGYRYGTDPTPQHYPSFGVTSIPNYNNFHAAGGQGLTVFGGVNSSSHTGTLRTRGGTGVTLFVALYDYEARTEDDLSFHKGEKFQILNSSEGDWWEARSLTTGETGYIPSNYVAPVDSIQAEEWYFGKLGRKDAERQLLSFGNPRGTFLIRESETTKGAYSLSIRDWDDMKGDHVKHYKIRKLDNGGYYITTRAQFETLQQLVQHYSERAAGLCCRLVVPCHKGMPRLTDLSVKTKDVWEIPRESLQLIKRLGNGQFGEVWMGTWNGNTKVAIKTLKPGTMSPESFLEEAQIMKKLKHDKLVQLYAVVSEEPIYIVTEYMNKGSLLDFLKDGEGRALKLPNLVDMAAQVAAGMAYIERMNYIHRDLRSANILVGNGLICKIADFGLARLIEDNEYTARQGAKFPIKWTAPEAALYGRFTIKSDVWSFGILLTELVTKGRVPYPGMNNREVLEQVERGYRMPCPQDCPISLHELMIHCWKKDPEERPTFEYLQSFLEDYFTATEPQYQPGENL
Metric Name: IC50

INSERT INTO measurements (compound_smiles, value_measured) VALUES
  ('Cc1ccc(F)c(NC(=O)Nc2ccc(-c3cccc4[nH]nc(N)c34)cc2)c1', '> 50 µM');

----------
biological target: IGFR (Homo sapiens, UniProt P08069)
Sequence (P08069 31-1367): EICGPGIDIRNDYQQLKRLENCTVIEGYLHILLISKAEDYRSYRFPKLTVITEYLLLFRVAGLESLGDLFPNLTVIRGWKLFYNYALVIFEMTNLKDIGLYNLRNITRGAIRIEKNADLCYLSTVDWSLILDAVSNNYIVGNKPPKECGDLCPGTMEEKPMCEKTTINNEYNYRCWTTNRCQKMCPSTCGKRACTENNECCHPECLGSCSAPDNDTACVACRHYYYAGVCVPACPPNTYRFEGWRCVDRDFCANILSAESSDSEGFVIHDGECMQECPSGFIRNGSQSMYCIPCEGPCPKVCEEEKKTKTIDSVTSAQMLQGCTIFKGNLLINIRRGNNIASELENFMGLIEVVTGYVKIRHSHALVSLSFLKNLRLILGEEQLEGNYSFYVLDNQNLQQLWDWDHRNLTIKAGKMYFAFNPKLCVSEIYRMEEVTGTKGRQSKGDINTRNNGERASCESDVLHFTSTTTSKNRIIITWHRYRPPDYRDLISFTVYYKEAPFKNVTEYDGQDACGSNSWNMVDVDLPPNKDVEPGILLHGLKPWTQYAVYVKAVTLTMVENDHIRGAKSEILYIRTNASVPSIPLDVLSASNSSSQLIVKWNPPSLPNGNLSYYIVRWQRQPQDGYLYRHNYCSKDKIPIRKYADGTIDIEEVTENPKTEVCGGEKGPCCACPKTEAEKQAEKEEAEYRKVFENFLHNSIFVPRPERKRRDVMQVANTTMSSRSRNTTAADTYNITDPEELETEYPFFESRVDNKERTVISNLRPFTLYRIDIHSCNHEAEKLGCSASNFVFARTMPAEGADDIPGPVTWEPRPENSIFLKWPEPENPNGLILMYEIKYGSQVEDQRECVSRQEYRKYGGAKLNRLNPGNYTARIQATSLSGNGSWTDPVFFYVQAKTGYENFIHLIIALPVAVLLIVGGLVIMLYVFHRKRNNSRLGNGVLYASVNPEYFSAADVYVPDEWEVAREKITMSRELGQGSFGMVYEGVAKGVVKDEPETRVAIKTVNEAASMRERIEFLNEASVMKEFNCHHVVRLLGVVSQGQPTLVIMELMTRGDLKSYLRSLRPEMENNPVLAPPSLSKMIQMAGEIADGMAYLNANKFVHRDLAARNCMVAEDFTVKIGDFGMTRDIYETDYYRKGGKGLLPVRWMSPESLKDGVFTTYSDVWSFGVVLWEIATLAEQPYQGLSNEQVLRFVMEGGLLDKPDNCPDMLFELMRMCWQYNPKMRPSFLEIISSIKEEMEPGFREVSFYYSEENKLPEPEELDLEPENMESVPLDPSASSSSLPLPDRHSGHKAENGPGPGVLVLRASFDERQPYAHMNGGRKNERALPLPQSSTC
Metric Name: IC50

INSERT INTO assay_data (compound_smiles, value_measured) VALUES
  ('Cc1ccc(F)c(NC(=O)Nc2ccc(-c3cccc4[nH]nc(N)c34)cc2)c1', '> 50 µM');
